Origin of the recorded values: patent US20240400689A1

MEASUREMENT_TARGET: T1, human CD276 protein (human, UniProt Q5ZPR3 29-534)
T1 construct: whole, on cells; for SKOV3 and the other cancer lines the protein is the cells' own; also called B7-H3; B7H3
T1 sequence (looked up): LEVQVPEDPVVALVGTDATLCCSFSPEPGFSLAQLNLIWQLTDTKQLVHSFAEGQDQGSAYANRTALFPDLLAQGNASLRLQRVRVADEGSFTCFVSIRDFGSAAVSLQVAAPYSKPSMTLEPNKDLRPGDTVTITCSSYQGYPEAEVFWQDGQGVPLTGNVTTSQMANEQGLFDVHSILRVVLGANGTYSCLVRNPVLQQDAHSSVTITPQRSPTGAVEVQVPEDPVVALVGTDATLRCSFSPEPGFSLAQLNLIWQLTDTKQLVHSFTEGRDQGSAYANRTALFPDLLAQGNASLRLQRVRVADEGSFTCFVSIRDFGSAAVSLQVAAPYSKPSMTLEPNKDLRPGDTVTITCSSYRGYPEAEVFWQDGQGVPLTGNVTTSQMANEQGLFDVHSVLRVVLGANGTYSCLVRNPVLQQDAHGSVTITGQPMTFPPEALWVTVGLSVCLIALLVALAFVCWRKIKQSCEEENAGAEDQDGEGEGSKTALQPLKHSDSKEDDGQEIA
MEASUREMENT_NOTES: FACS on CHO-S-hCD276 cells
RECORDED_ENDPOINT: FACS MFI
Answer using only a numeral; do not append any unit.

Answered examples (2):
>>> measured("14-E7-G9-D4 (antibody, V domains shown, mouse monoclonal antibody (hybridoma)) VH: EVQLQQSGPELVKPGASVKMSCKASGYTFTNYIMHWVKQKPGQGLEWIGYINPYNDGIKYNEKFKGKATLTSDKSSSTAYMELSSLTSEDSAVYYCTRWGNYVFYYTMDYWGQGTSVTVSS VL: QIVLSQSPAILSASPGEKVTMTCRASSSVSYMHWYQQKPGSSPKPWIYATSNLASGVPARFSGSGSGTSYSLTISRMEAEDAATYYCQQWSGNPPLTFGAGTKLELK")
78100
>>> measured("9-G2-H6-E4 (antibody, V domains shown, mouse monoclonal antibody (hybridoma)) VH: EVQLQQSGPDLVKPGASVKISCKASGYSFTGYFMNWVKQRHGKSLEWIGYINPNNGDTIYNQKFKGKATLTVDKSSSTAHMELLSLTSEDSAVYYCGRGGLPFGALDYWGQGTSVTVSS VL: DIVMSQSPSSLAVSVGEKVNMSCKSSQSLLYSRNQKNYLAWNQQKPGQSPKLLIYWASARESGVPDRFTGSGSGTDFTLTISSVKAEDLAAYYCQQYHSYPYTFGGGTKLELK")
49600

API: the following record is the query input.
Check the records and state FACS MFI for 25-C8-D7-C5 (antibody, V domains shown, mouse monoclonal antibody (hybridoma)) VH: EVQLQESGGGLVKPGGSLKFSCAASGFTFSTYAMSWVRQTPEKRLEWVATISGGGIDTYYPDSVKGRFTISRDNAKNTLYLQMNSLRSEDTAMYYCARQGSKGWGAMDYWGQGTSVTVSS VL: QIVLTQSPAIMSASPGEKVTMTCRASSSVSFMHWYQQKSGTSPKRWIYETSKLASGVPDRFSGSGSGTSYSLTISSMEAEDAATYYCQQWSSNPLTFGAGTKLELK
148000
